# Tested on: SF-539 CNS
# test.description: NCI-60 one-dose screen, 48 h
# measurement.parameters: 10 µM unless noted
About 83,000 compounds went through this panel and 20% of them were active in at least one assay; those are over-represented in the sample as a whole. Active and inactive are the calls of the source. How the source made its calls: active means growth percent below 10; inactive means the rest.
Outcomes: class 1 = active, class 0 = inactive

>>> class("O=S(=O)(NCCCNc1cc(-c2c(-c3cccc(O)c3)nc3sccn23)ccn1)c1cccc(Cl)c1")
"class 0"
>>> class("O=C(Nc1cccc(Cl)c1)c1cc(N=Nc2ccc([N+](=O)[O-])cc2Cl)ccc1O")
"class 0"
>>> class("CC/C=C\\C[C@H](O)C/C=C1/C(=O)C=C[C@@H]1C/C=C\\CCCC(=O)OC")
"class 1"
